- SYSTEM: T1, HLA-A3 (A*0301) (human)
- T1 construct: MHC class I molecule on mild-acid-stripped EBV-transformed B cells (EKR)
- EXPERIMENTAL_DETAILS: cellular competition binding assay on acid-stripped B-LCL EKR, flow cytometry; competitor Fl-labeled reference peptide KVFPC(Fl)ALINK
MEASURED_ATTRIBUTE: IC50 (nM)
Just the number in nM, nothing appended.

## Input Answer with the recorded IC50 for the binder listed here: RLAYLHARLR [PRAME 459-468 RLAYLHARLR]
## Output 1000

The origin of these recorded values is patent US20160333065A1.
